# Target of assay: RSV F protein of subtype A (strain A2) on recombinant mKate-RSV virus (Respiratory syncytial virus subtype A …, UniProt P03420 26-574)
# Method summary: cell-based or functional assay
Value type: Neut IC50 (µg/ml) subtype A (µg/mL)
Express the result in µg/mL but write the number alone.

Neut IC50 (µg/ml) subtype A for ADI-18893 (antibody, V domains shown, full-length IgG from yeast; also called Antibody Number 248; Ab # 248) VH: EVQLLESGGGLVKPGGSLRLSCVASGFTFSSYNINWVRQAPGKGLEWVSSISGGSNYIDYADSVKGRFTISRDNAKNSLYLQMNNLRAEDTAVYYCARLGYGGNPELDYWGQGTLVTVSS VL: QSVLTQPPSVSGAPGQRVTISCTGSSSNIGAGYDVHWYQQRPGTAPKLLIYANNNRPSGVPDRFSGSKSGTSASLAITGLQAEDEADYYCQSYDLSLSSSRVFGGGTKLTVL ?
0.123

I have this binder here, ADI-18944 (antibody, V domains shown, full-length IgG from yeast) VH: QVQLVQSGAEVKKPGASVKVSCKTSGYTFSNYGISWLRQAPGQGLEWMAWISPYNGNTKSAQRFQGRVIMTTDTSTRTAHMEVKSLRTDDTATYYCARDPAVDAIPMLDYWGQGTTVTVSS VL: DIQVTQSPLSLPVTLGQPASISCRSSQSLVYTDGNTYLSWFQQRPGQSPRRLIYRVSHRDSGVPDRFTGSGSGTDFTLIIRRVEAEDVGVYYCMQGTHWPLTFGGGTKVEIK , and I need its recorded Neut IC50 (µg/ml) subtype A.
0.026

I am curious: what Neut IC50 (µg/ml) subtype A value has been reported for ADI-18905 (antibody, V domains shown) VH: EVQLVESGPTLVKPSETLSLTCVVSGGSVYRSSNYWAWIRQPPGKGLEWIGSVYHSGNPYSNPSLQSRVSVSIDTSKNQFSLKLYSVTAADSAIYYCACKRADADDVDYVAGLTGFPWYFDVWGRGTLVTVSS VL: EIVLTQSPSTLSASVGDRVTITCRASQSISSWLAWYQQKPGKTPKLLIYKASTLESGVPSRFSGSGSGTEFTLTISSLQPDDFATYYCQQYHVYFPLTFGGGTKVEIK ?
0.685
